- measurement.target: T1, human CD3 E&D complex protein (Sino Biological Inc., CT026H0323H) (human, UniProt P07766 23-126; P04234 22-105)
- T1 construct: bought heterodimer; also called human CD3 protein (CT026H0323H)
- T1 sequence (P07766 23-126, chain 1 of 2): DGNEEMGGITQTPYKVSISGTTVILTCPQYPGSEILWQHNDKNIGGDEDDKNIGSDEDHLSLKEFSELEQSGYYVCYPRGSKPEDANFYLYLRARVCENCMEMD
- T1 sequence (P04234 22-105, chain 2 of 2): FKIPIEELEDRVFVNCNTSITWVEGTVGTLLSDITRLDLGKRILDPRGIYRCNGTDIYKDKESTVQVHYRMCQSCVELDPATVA
- assay.details: BLI, antibody on sensor
property.label: koff (s⁻¹)
Numbers only, in s⁻¹.

Here is how some binders turned out for koff.
Inquiry: Please give the measured koff for this binder: hzsp34.93 (antibody, human IgG1, lambda, L234A L235A, V domains shown, CDR mutant of hzsp34.24; IgG1 L234A L235A, lambda) VH: EVQLVESGGGLVQPGGSLKLSCAASGFTFNTYAMNWVRQASGKGLEWVGRIRSKYNNYATYYADSVKDRFTISRDDSKSTLYLQMNSLKTEDTAVYYCARHGNFGQSAVSWFAYWGQGTTVTVSS VL: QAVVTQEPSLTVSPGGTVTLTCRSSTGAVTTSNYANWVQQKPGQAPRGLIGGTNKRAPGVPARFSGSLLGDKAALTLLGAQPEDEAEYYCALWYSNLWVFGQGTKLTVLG
Reply text: 0.00026

Inquiry: Can you check hzsp34.102 (antibody, human IgG1, lambda, L234A L235A, V domains shown, CDR mutant of hzsp34.24; IgG1 L234A L235A, lambda) VH: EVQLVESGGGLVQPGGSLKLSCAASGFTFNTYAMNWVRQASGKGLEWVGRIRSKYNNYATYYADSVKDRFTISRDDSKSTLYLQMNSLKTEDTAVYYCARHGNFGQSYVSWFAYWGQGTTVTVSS VL: QAVVTQEPSLTVSPGGTVTLTCGSSTGAVTTSNYANWVQQKPGQAPRGLIGGTNKRAPGVPARFSGSLLGDKAALTLLGAQPEDEAEYYCALWYSNLWVFGQGTKLTVLG next?
Reply text: 0.000423

Inquiry: Can you check hzsp34.86 (antibody, human IgG1, lambda, L234A L235A, V domains shown, CDR mutant of hzsp34.24; IgG1 L234A L235A, lambda) VH: EVQLVESGGGLVQPGGSLKLSCAASGFTFNTYAMNWVRQASGKGLEWVGRIRSKYNNYATYYADSVKDRFTISRDDSKSTLYLQMNSLKTEDTAVYYCARAGNFGQSYVSWFAYWGQGTTVTVSS VL: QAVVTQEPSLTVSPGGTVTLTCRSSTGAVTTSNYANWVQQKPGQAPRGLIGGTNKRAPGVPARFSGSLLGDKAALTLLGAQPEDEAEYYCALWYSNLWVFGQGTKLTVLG next?
Reply text: 0.000354

Inquiry: Can you check hzsp34.99 (antibody, human IgG1, lambda, L234A L235A, V domains shown, CDR mutant of hzsp34.24; IgG1 L234A L235A, lambda) VH: EVQLVESGGGLVQPGGSLKLSCAASGFTFNTYAMNWVRQASGKGLEWVGRIRSKYNNYATYYADSVKDRFTISRDDSKSTLYLQMNSLKTEDTAVYYCARHGNAYQSYVSWFAYWGQGTTVTVSS VL: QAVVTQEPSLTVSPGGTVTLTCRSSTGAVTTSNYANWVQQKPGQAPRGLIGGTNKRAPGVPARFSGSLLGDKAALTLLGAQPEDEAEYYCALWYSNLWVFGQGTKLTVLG next?
Reply text: 0.0011

Inquiry: Can you check hzsp34.24 (antibody, human IgG1, lambda, L234A L235A, V domains shown, IgG1 L234A L235A, lambda; parent of the CDR mutants) VH: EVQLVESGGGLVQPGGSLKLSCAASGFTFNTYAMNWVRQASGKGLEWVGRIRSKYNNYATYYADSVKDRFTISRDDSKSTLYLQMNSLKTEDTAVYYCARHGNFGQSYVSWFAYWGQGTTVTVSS VL: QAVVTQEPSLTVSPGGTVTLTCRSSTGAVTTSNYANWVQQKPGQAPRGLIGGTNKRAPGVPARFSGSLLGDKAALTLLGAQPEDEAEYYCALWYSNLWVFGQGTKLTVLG next?
Reply text: 0.000234

Please look at the items below and tell me koff for each one, in order.
1. hzsp34.109 (antibody, human IgG1, lambda, L234A L235A, V domains shown, CDR mutant of hzsp34.24; IgG1 L234A L235A, lambda) VH: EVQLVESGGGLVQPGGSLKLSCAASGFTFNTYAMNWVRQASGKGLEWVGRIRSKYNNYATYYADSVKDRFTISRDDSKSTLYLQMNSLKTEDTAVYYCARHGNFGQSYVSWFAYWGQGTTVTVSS VL: QAVVTQEPSLTVSPGGTVTLTCRSSTGAVTTSNYANWVQQKPGQAPRGLIGGTNKRAPGVPARFSGSLLGDKAALTLLGAQPEDEAEYYCALWYRNLWVFGQGTKLTVLG
2. hzsp34.78 (antibody, human IgG1, lambda, L234A L235A, V domains shown, CDR mutant of hzsp34.24; IgG1 L234A L235A, lambda) VH: EVQLVESGGGLVQPGGSLKLSCAASGFTFGTYAMNWVRQASGKGLEWVGRIRSKYNNYATYYADSVKDRFTISRDDSKSTLYLQMNSLKTEDTAVYYCARHGNFGQSYVSWFAYWGQGTTVTVSS VL: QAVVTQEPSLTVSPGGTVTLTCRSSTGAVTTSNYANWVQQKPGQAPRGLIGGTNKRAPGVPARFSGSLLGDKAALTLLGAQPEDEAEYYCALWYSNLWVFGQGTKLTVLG
3. hzsp34.107 (antibody, human IgG1, lambda, L234A L235A, V domains shown, CDR mutant of hzsp34.24; IgG1 L234A L235A, lambda) VH: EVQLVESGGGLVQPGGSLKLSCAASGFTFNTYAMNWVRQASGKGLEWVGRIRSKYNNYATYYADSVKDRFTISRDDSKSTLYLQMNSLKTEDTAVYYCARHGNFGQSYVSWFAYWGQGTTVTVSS VL: QAVVTQEPSLTVSPGGTVTLTCRSSTGAVTTSNYANWVQQKPGQAPRGLIGGTNKRAPGVPARFSGSLLGDKAALTLLGAQPEDEAEYYCALAYSNLWVFGQGTKLTVLG
4. hzsp34.106 (antibody, human IgG1, lambda, L234A L235A, V domains shown, CDR mutant of hzsp34.24; IgG1 L234A L235A, lambda) VH: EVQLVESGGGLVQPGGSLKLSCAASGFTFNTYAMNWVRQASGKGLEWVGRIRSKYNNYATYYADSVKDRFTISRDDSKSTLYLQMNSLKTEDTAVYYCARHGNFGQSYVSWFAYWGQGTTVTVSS VL: QAVVTQEPSLTVSPGGTVTLTCRSSTGAVTTSGYANWVQQKPGQAPRGLIGGTNKRAPGVPARFSGSLLGDKAALTLLGAQPEDEAEYYCALWYSNLWVFGQGTKLTVLG
5. hzsp34.79 (antibody, human IgG1, lambda, L234A L235A, V domains shown, CDR mutant of hzsp34.24; IgG1 L234A L235A, lambda) VH: EVQLVESGGGLVQPGGSLKLSCAASGFTFNGYAMNWVRQASGKGLEWVGRIRSKYNNYATYYADSVKDRFTISRDDSKSTLYLQMNSLKTEDTAVYYCARHGNFGQSYVSWFAYWGQGTTVTVSS VL: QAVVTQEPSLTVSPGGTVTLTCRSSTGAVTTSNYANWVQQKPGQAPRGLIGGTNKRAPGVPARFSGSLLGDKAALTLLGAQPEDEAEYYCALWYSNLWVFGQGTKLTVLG

Reply text:
1: 0.000258; 2: 0.0003; 3: 0.00141; 4: 0.000365; 5: 0.000118
